meta.source: ChEMBL document CHEMBL3739261

tested on: Staphylococcus aureus; test: Antibacterial activity against methicillin-susceptible Staphylococcus aureus ATCC 25923 incubated for 18 hrs by broth microdilution method; assay type: functional; conditions: ATCC 25923, 18 h
QUANTITY NAME: MIC

CN(CCO)C[C@H]1CN(c2ccc(-n3cc(-c4ccccn4)cn3)c(F)c2)C(=O)O1 | > 32 µg/mL
CC(=O)NC[C@H]1CN(c2ccc(-n3cc(-c4ccccn4)cn3)c(F)c2)C(=O)O1 | 2 µg/mL
O=C1CCC(=O)N1C[C@H]1CN(c2ccc(-n3cc(-c4ccccn4)cn3)c(F)c2)C(=O)O1 | > 32 µg/mL
O=C1O[C@@H](CN2CCC(c3ccc(F)cc3)CC2)CN1c1ccc(-n2cc(-c3ccccn3)cn2)c(F)c1 | > 32 µg/mL
O=C(NC[C@H]1CN(c2ccc(-n3cc(-c4ccccn4)cn3)c(F)c2)C(=O)O1)C(F)F | 2 µg/mL
O=C1O[C@@H](CN2CCOCC2)CN1c1ccc(-n2cc(-c3ccccn3)cn2)c(F)c1 | > 32 µg/mL
O=CNC[C@H]1CN(c2ccc(-n3cc(-c4ccccn4)cn3)c(F)c2)C(=O)O1 | 8 µg/mL
CCC(=O)NC[C@H]1CN(c2ccc(-n3cc(-c4ccccn4)cn3)c(F)c2)C(=O)O1 | 4 µg/mL
CONC(=O)[C@H]1CN(c2ccc(-n3cc(-c4ccccn4)cn3)c(F)c2)C(=O)O1 | 16 µg/mL
CS(=O)(=O)NC[C@H]1CN(c2ccc(-n3cc(-c4ccccn4)cn3)c(F)c2)C(=O)O1 | > 64 µg/mL
CCNC(=O)NC[C@H]1CN(c2ccc(-n3cc(-c4ccccn4)cn3)c(F)c2)C(=O)O1 | 8 µg/mL
COC(=O)CC1CCN(C[C@H]2CN(c3ccc(-n4cc(-c5ccccn5)cn4)c(F)c3)C(=O)O2)CC1 | > 32 µg/mL
CCN1CCN(C[C@H]2CN(c3ccc(-n4cc(-c5ccccn5)cn4)c(F)c3)C(=O)O2)CC1 | > 32 µg/mL
CN(C)S(=O)(=O)NC[C@H]1CN(c2ccc(-n3cc(-c4ccccn4)cn3)c(F)c2)C(=O)O1 | > 32 µg/mL
O=C1OC(Cn2ccnc2)CN1c1ccc(-n2cc(-c3ccccn3)cn2)c(F)c1 (single isomer, unassigned) | > 32 µg/mL
O=C1O[C@@H](CNC(=O)C(F)(F)F)CN1c1ccc(-n2cc(-c3ccccn3)cn2)c(F)c1 | > 64 µg/mL
O=C1O[C@@H](CN2CCC(O)CC2)CN1c1ccc(-n2cc(-c3ccccn3)cn2)c(F)c1 | > 32 µg/mL
O=C1O[C@@H](CN2CCCCC2)CN1c1ccc(-n2cc(-c3ccccn3)cn2)c(F)c1 | 32 µg/mL
